The reported numbers originate from paper PMC8658963.

System: human monocyte cell line U-937 (ATCC CRL-1593.2)
Experiment: in vitro
Details: human, 72 h
// values below are reported CC50
The reply should contain only the number, in µM.

compound | study_system | endpoint_unit | recorded_measurement
CC(=O)c1cc(O)ccc1O [Compound 6, 1-(2,5-Dihydroxyphenyl)ethan-1-one] | human monocyte cell line U-937 (ATCC CRL-1593.2) | µM | 6.3
CC(=O)c1cc(CC=C(C)C)c(O)c(O)c1O [Compound 18] | human monocyte cell line U-937 (ATCC CRL-1593.2) | µM | 5
CC(=O)c1c(O)cccc1O [Compound 7, 1-(2,6-Dihydroxyphenyl)ethan-1-one] | human monocyte cell line U-937 (ATCC CRL-1593.2) | µM | 15.3

From here, focus on the item given below.
Enter reported CC50 observed with human monocyte cell line U-937 (ATCC CRL-1593.2) for CC(=O)c1c(O)ccc(CC=C(C)C)c1O [Compound 16] 7.8
